Molecular target: T1, hPolη (human DNA polymerase eta) (Homo sapiens, UniProt Q9Y253 1-713)
T1 sequence: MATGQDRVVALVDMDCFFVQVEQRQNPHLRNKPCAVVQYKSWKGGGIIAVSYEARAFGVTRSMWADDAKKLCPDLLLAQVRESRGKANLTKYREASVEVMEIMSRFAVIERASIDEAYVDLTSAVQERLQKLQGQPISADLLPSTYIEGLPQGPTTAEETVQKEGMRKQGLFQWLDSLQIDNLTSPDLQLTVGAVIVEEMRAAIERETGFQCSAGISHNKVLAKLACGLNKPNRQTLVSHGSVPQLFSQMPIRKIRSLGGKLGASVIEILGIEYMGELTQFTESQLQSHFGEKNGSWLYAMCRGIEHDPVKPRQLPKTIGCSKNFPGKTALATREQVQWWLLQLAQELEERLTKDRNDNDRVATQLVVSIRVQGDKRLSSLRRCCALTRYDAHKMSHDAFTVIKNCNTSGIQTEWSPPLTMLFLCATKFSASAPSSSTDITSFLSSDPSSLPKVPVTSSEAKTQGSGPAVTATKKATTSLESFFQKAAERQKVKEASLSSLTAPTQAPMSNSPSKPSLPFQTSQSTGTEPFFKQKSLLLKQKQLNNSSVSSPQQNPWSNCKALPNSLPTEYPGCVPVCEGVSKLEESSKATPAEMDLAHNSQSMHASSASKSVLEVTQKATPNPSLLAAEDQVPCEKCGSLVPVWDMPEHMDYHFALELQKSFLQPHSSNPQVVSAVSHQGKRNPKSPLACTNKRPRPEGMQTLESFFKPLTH
Test: EMSA
Under this convention, condition met denotes Kd strictly below 20 nM and condition not met denotes Kd at or above 20 nM.

Illustrative cases are given below, each with its answer.
- Binder: "19/26-mer (dsDNA) DNA 1: AACGACGGCCAGTGAATTC DNA 2: CCCGCGCGAATTCACTGGCCGTCGTT"
  Class Assignment: "condition not met"
- Binder: "19/26-mer-dGC8-N-ABA (dsDNA, template dG at position 21 from 3' end (6 from 5' end) is N-(2'-deoxyguanosin-8-yl)-3-aminobenzanthrone) DNA 1: AACGACGGCCAGTGAATTC DNA 2: CCCGCGCGAATTCACTGGCCGTCGTT"
  Class Assignment: "condition met"
- Binder: "22/26-mer (dsDNA) DNA 1: AACGACGGCCAGTGAATTCGCG DNA 2: CCCGCGCGAATTCACTGGCCGTCGTT"
  Class Assignment: "condition met"
- Binder: "18/26-mer (dsDNA) DNA 1: AACGACGGCCAGTGAATT DNA 2: CCCGCGCGAATTCACTGGCCGTCGTT"
  Class Assignment: "condition not met"

[Q] # TODO verify Kd < 20 nM strictly for this binder: 21/26-mer (dsDNA) DNA 1: AACGACGGCCAGTGAATTCGC DNA 2: CCCGCGCGAATTCACTGGCCGTCGTT
[A] condition not met

[Q] # TODO verify Kd < 20 nM strictly for this binder: 20/26-mer-dGC8-N-ABA (dsDNA, template dG at position 21 from 3' end (6 from 5' end) is N-(2'-deoxyguanosin-8-yl)-3-aminobenzanthrone) DNA 1: AACGACGGCCAGTGAATTCG DNA 2: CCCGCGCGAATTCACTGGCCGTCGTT
[A] condition met

[Q] # TODO verify Kd < 20 nM strictly for this binder: 20/26-mer (dsDNA) DNA 1: AACGACGGCCAGTGAATTCG DNA 2: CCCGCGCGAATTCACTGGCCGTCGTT
[A] condition not met
